Entry source: the supplement of paper PMC7877785

Recorded measurements of self-splicing fitness (ln), one per entry
protocol-details: self-splicing fitness, log relative to wild type (ln ratio); higher = more splicing; Tetrahymena group I intron in knt gene, E. coli kanamycin selection, DiMSum; sequences stand for … in CUCUCU…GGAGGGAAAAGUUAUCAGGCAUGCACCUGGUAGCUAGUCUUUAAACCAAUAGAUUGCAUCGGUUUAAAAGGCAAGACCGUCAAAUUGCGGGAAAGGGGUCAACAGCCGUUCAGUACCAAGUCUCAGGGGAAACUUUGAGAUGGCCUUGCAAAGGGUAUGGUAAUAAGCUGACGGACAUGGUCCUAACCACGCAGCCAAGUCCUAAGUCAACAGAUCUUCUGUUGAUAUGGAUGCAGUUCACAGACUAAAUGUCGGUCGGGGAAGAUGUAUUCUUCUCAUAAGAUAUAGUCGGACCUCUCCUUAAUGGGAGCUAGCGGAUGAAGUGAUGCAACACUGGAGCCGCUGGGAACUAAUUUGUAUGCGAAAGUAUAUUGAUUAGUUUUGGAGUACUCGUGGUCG;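 also: selection with 25 µg/mL kanamycin versus none on LB agar overnight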
reported-conditions: 37 °C
observed-property: self-splicing fitness (ln)

[
  {
    "sequence-content": "CAUGAGCAAUAUUACGAUGA",
    "observed-property": "self-splicing fitness (ln)",
    "value-measured": -2.48
  },
  {
    "sequence-content": "UGGCAGCAAUAUUACGUGCA",
    "observed-property": "self-splicing fitness (ln)",
    "value-measured": -0.0321
  },
  {
    "sequence-content": "AUAGAGCAAUAUUACGAUUU",
    "observed-property": "self-splicing fitness (ln)",
    "value-measured": 0.0148
  },
  {
    "sequence-content": "UCAUAGCAAUAUUACGGCCU",
    "observed-property": "self-splicing fitness (ln)",
    "value-measured": -2.48
  },
  {
    "sequence-content": "CCGGAGCAAUAUUACGUUUC",
    "observed-property": "self-splicing fitness (ln)",
    "value-measured": -2.74
  },
  {
    "sequence-content": "GUCAAGCAAUAUUACGUCGG",
    "observed-property": "self-splicing fitness (ln)",
    "value-measured": -1.88
  },
  {
    "sequence-content": "AAAGAGCAAUAUUACGACGA",
    "observed-property": "self-splicing fitness (ln)",
    "value-measured": -2.57
  },
  {
    "sequence-content": "AGCAAGCAAUAUUACGAUUU",
    "observed-property": "self-splicing fitness (ln)",
    "value-measured": 0.677
  },
  {
    "sequence-content": "AGGCAGCAAUAUUACGUUGU",
    "observed-property": "self-splicing fitness (ln)",
    "value-measured": -2.52
  },
  {
    "sequence-content": "UGUCAGCAAUAUUACGACUG",
    "observed-property": "self-splicing fitness (ln)",
    "value-measured": 0.525
  },
  {
    "sequence-content": "UUCGAGCAAUAUUACGACAG",
    "observed-property": "self-splicing fitness (ln)",
    "value-measured": -1.5
  },
  {
    "sequence-content": "GUGAAGCAAUAUUACGUUCA",
    "observed-property": "self-splicing fitness (ln)",
    "value-measured": -0.809
  },
  {
    "sequence-content": "GACCAGCAAUAUUACGAUAG",
    "observed-property": "self-splicing fitness (ln)",
    "value-measured": -1.45
  },
  {
    "sequence-content": "GCAGAGCAAUAUUACGGUGC",
    "observed-property": "self-splicing fitness (ln)",
    "value-measured": -1.9
  },
  {
    "sequence-content": "GUCGAGCAAUAUUACGCCAG",
    "observed-property": "self-splicing fitness (ln)",
    "value-measured": -2
  },
  {
    "sequence-content": "GCGUAGCAAUAUUACGAGAU",
    "observed-property": "self-splicing fitness (ln)",
    "value-measured": -2.25
  },
  {
    "sequence-content": "UCGCAGCAAUAUUACGAUAU",
    "observed-property": "self-splicing fitness (ln)",
    "value-measured": -2.41
  },
  {
    "sequence-content": "ACACAGCAAUAUUACGGUGA",
    "observed-property": "self-splicing fitness (ln)",
    "value-measured": 0.17
  },
  {
    "sequence-content": "GUUCAGCAAUAUUACGCUAA",
    "observed-property": "self-splicing fitness (ln)",
    "value-measured": 0.184
  },
  {
    "sequence-content": "AAAGAGCAAUAUUACGGCCA",
    "observed-property": "self-splicing fitness (ln)",
    "value-measured": -2.5
  },
  {
    "sequence-content": "AGCUAGCAAUAUUACGUAUG",
    "observed-property": "self-splicing fitness (ln)",
    "value-measured": -0.829
  },
  {
    "sequence-content": "UAUUAGCAAUAUUACGGGCU",
    "observed-property": "self-splicing fitness (ln)",
    "value-measured": -2.3
  },
  {
    "sequence-content": "CUACAGCAAUAUUACGGAAU",
    "observed-property": "self-splicing fitness (ln)",
    "value-measured": -3.3
  },
  {
    "sequence-content": "AUAUAGCAAUAUUACGACGG",
    "observed-property": "self-splicing fitness (ln)",
    "value-measured": -2.5
  },
  {
    "sequence-content": "CCGAAGCAAUAUUACGGAAG",
    "observed-property": "self-splicing fitness (ln)",
    "value-measured": -1.31
  },
  {
    "sequence-content": "GCGGAGCAAUAUUACGUUUA",
    "observed-property": "self-splicing fitness (ln)",
    "value-measured": -2.33
  },
  {
    "sequence-content": "AUCCAGCAAUAUUACGAUAA",
    "observed-property": "self-splicing fitness (ln)",
    "value-measured": -1.03
  },
  {
    "sequence-content": "ACCCAGCAAUAUUACGACGU",
    "observed-property": "self-splicing fitness (ln)",
    "value-measured": 0.39
  },
  {
    "sequence-content": "GAAGAGCAAUAUUACGACGC",
    "observed-property": "self-splicing fitness (ln)",
    "value-measured": 0.291
  },
  {
    "sequence-content": "AAAGAGCAAUAUUACGCGGU",
    "observed-property": "self-splicing fitness (ln)",
    "value-measured": -1.49
  },
  {
    "sequence-content": "AAGUAGCAAUAUUACGGUCG",
    "observed-property": "self-splicing fitness (ln)",
    "value-measured": -1.03
  },
  {
    "sequence-content": "ACGCAGCAAUAUUACGAACA",
    "observed-property": "self-splicing fitness (ln)",
    "value-measured": -1.36
  },
  {
    "sequence-content": "GUAGAGCAAUAUUACGUGGU",
    "observed-property": "self-splicing fitness (ln)",
    "value-measured": -3.52
  },
  {
    "sequence-content": "CCCAAGCAAUAUUACGGCAG",
    "observed-property": "self-splicing fitness (ln)",
    "value-measured": -1.65
  },
  {
    "sequence-content": "ACUGAGCAAUAUUACGACCA",
    "observed-property": "self-splicing fitness (ln)",
    "value-measured": -1.1
  },
  {
    "sequence-content": "UGAUAGCAAUAUUACGGGGA",
    "observed-property": "self-splicing fitness (ln)",
    "value-measured": -1.8
  },
  {
    "sequence-content": "AUCUAGCAAUAUUACGGAGG",
    "observed-property": "self-splicing fitness (ln)",
    "value-measured": -1.96
  },
  {
    "sequence-content": "AUACAGCAAUAUUACGGCGC",
    "observed-property": "self-splicing fitness (ln)",
    "value-measured": 0.447
  },
  {
    "sequence-content": "CUUGAGCAAUAUUACGAACG",
    "observed-property": "self-splicing fitness (ln)",
    "value-measured": 0.12
  },
  {
    "sequence-content": "GUAAAGCAAUAUUACGAGUA",
    "observed-property": "self-splicing fitness (ln)",
    "value-measured": -0.624
  },
  {
    "sequence-content": "UGGGAGCAAUAUUACGGACA",
    "observed-property": "self-splicing fitness (ln)",
    "value-measured": -0.535
  },
  {
    "sequence-content": "UACUAGCAAUAUUACGGGAA",
    "observed-property": "self-splicing fitness (ln)",
    "value-measured": -0.547
  },
  {
    "sequence-content": "UCAAAGCAAUAUUACGAUCC",
    "observed-property": "self-splicing fitness (ln)",
    "value-measured": -2.34
  },
  {
    "sequence-content": "AAUGAGCAAUAUUACGUUAG",
    "observed-property": "self-splicing fitness (ln)",
    "value-measured": -2.3
  },
  {
    "sequence-content": "CCACAGCAAUAUUACGAUGA",
    "observed-property": "self-splicing fitness (ln)",
    "value-measured": -1.77
  },
  {
    "sequence-content": "UGUCAGCAAUAUUACGUUGU",
    "observed-property": "self-splicing fitness (ln)",
    "value-measured": -2.3
  },
  {
    "sequence-content": "CCUAAGCAAUAUUACGGUCG",
    "observed-property": "self-splicing fitness (ln)",
    "value-measured": -0.252
  },
  {
    "sequence-content": "CCCUAGCAAUAUUACGUGGG",
    "observed-property": "self-splicing fitness (ln)",
    "value-measured": -2.54
  },
  {
    "sequence-content": "GAUAAGCAAUAUUACGUUAG",
    "observed-property": "self-splicing fitness (ln)",
    "value-measured": -2.27
  },
  {
    "sequence-content": "CGGCAGCAAUAUUACGAGCA",
    "observed-property": "self-splicing fitness (ln)",
    "value-measured": -0.81
  },
  {
    "sequence-content": "CCUGAGCAAUAUUACGGCCA",
    "observed-property": "self-splicing fitness (ln)",
    "value-measured": -2.05
  },
  {
    "sequence-content": "AAUAAGCAAUAUUACGCCCU",
    "observed-property": "self-splicing fitness (ln)",
    "value-measured": 0.525
  },
  {
    "sequence-content": "AGGUAGCAAUAUUACGCAGG",
    "observed-property": "self-splicing fitness (ln)",
    "value-measured": -1.88
  },
  {
    "sequence-content": "CCGUAGCAAUAUUACGUGGG",
    "observed-property": "self-splicing fitness (ln)",
    "value-measured": -3.05
  },
  {
    "sequence-content": "ACCGAGCAAUAUUACGUUCG",
    "observed-property": "self-splicing fitness (ln)",
    "value-measured": -1.76
  },
  {
    "sequence-content": "GUCGAGCAAUAUUACGGAAG",
    "observed-property": "self-splicing fitness (ln)",
    "value-measured": -2.35
  },
  {
    "sequence-content": "CUUGAGCAAUAUUACGCGCA",
    "observed-property": "self-splicing fitness (ln)",
    "value-measured": -2.23
  },
  {
    "sequence-content": "CGCCAGCAAUAUUACGGAGU",
    "observed-property": "self-splicing fitness (ln)",
    "value-measured": -2.7
  },
  {
    "sequence-content": "UAAUAGCAAUAUUACGGGUC",
    "observed-property": "self-splicing fitness (ln)",
    "value-measured": -1.58
  },
  {
    "sequence-content": "GUAUAGCAAUAUUACGACCG",
    "observed-property": "self-splicing fitness (ln)",
    "value-measured": -0.999
  },
  {
    "sequence-content": "AGGCAGCAAUAUUACGGGAG",
    "observed-property": "self-splicing fitness (ln)",
    "value-measured": -1.53
  },
  {
    "sequence-content": "CGCUAGCAAUAUUACGUAGU",
    "observed-property": "self-splicing fitness (ln)",
    "value-measured": -1.34
  },
  {
    "sequence-content": "GUGAAGCAAUAUUACGAUCC",
    "observed-property": "self-splicing fitness (ln)",
    "value-measured": 0.244
  },
  {
    "sequence-content": "CACUAGCAAUAUUACGACCU",
    "observed-property": "self-splicing fitness (ln)",
    "value-measured": -1.6
  },
  {
    "sequence-content": "ACAUAGCAAUAUUACGGAAC",
    "observed-property": "self-splicing fitness (ln)",
    "value-measured": -2
  },
  {
    "sequence-content": "CGAGAGCAAUAUUACGCAUC",
    "observed-property": "self-splicing fitness (ln)",
    "value-measured": -2.33
  },
  {
    "sequence-content": "CCGUAGCAAUAUUACGUCAA",
    "observed-property": "self-splicing fitness (ln)",
    "value-measured": -1.2
  }
]
